Tested on: renovascular hypertensive rats
Assay: Effect on reducing blood pressure of renovascular hypertensive rats by single oral administration
Assay type: in vivo, Wistar rats
Details: Rattus norvegicus; 1.0 mg/kg, single oral administration, RHR; read-out: Variations on heart rate
Measured change in vivo at 1 mg/kg by item

>  <compound>
CCOc1nc2cccc(C(=O)OCCO[N+](=O)[O-])c2n1Cc1ccc(-c2ccccc2-c2noc(=O)[nH]2)cc1

>  <assaySystem>
renovascular hypertensive rats

>  <change in vivo at 1 mg/kg [%]>
5

$$$$
>  <compound>
CCOc1nc2cccc(C(=O)OC(C)OC(=O)OCc3ccn(C)c3)c2n1Cc1ccc(-c2ccccc2-c2noc(=O)[nH]2)cc1 (stereo not drawn)

>  <assaySystem>
renovascular hypertensive rats

>  <change in vivo at 1 mg/kg [%]>
-15

$$$$
>  <compound>
CCOc1nc2cccc(C(=O)OC(OC(=O)OCc3nc(C)c(C)nc3C)C(C)(C)C)c2n1Cc1ccc(-c2ccccc2-c2noc(=O)[nH]2)cc1 (stereo not drawn)

>  <assaySystem>
renovascular hypertensive rats

>  <change in vivo at 1 mg/kg [%]>
-6

$$$$
>  <compound>
CCOc1nc2cccc(C(=O)OCc3oc(=O)c(=O)oc3C)c2n1Cc1ccc(-c2ccccc2-c2noc(=O)[nH]2)cc1

>  <assaySystem>
renovascular hypertensive rats

>  <change in vivo at 1 mg/kg [%]>
-4

$$$$
>  <compound>
CCOc1nc2cccc(C(=O)OCc3no[n+]([O-])c3C(C)(C)C)c2n1Cc1ccc(-c2ccccc2-c2noc(=O)[nH]2)cc1

>  <assaySystem>
renovascular hypertensive rats

>  <change in vivo at 1 mg/kg [%]>
-10

$$$$
>  <compound>
CCOc1nc2cccc(C(=O)OCCCCOc3no[n+]([O-])c3S(=O)(=O)c3ccccc3)c2n1Cc1ccc(-c2ccccc2-c2noc(=O)[nH]2)cc1

>  <assaySystem>
renovascular hypertensive rats

>  <change in vivo at 1 mg/kg [%]>
-8

$$$$

----------
Tested on: normal rats
Assay: Effect on blood pressure of normal rats by single oral administration
Type: in vivo, Wistar rats
Conditions: Rattus norvegicus, po, 8 h; 2.0 mg/kg p.o., single, normal rats; read-out: blood pressure reduction at 8 h after the administration

>  <compound>
CCOc1nc2cccc(C(=O)OCc3no[n+]([O-])c3C)c2n1Cc1ccc(-c2ccccc2-c2noc(=O)[nH]2)cc1 [QR01023]

>  <unitsSymbol>
%

>  <inhibition in vivo at 2 mg/kg>
4.3

$$$$
>  <compound>
CCOc1nc2cccc(C(=O)OCc3oc(=S)oc3C)c2n1Cc1ccc(-c2ccccc2-c2noc(=O)[nH]2)cc1 [QR01013]

>  <unitsSymbol>
%

>  <inhibition in vivo at 2 mg/kg>
3.4

$$$$
>  <compound>
CCOc1nc2cccc(C(=O)OC(C)OC(=O)OCc3nc(C)c(C)nc3C)c2n1Cc1ccc(-c2ccccc2-c2noc(=O)[nH]2)cc1 (stereo not shown) [QR01019]

>  <unitsSymbol>
%

>  <inhibition in vivo at 2 mg/kg>
4.5

$$$$
>  <compound>
CCOc1nc2cccc(C(=O)OCc3nc(C)c(C)nc3C)c2n1Cc1ccc(-c2ccccc2-c2noc(=O)[nH]2)cc1 [QR01006]

>  <unitsSymbol>
%

>  <inhibition in vivo at 2 mg/kg>
4.2

$$$$
>  <compound>
CCOc1nc2cccc(C(=O)OCc3no[n+]([O-])c3C#N)c2n1Cc1ccc(-c2ccccc2-c2noc(=O)[nH]2)cc1 [QR01036]

>  <unitsSymbol>
%

>  <inhibition in vivo at 2 mg/kg>
6.3

$$$$
>  <compound>
CCOc1nc2cccc(C(=O)OCCO[N+](=O)[O-])c2n1Cc1ccc(-c2ccccc2-c2noc(=O)[nH]2)cc1 [QR01016]

>  <unitsSymbol>
%

>  <inhibition in vivo at 2 mg/kg>
5.9

$$$$
>  <compound>
CCOc1nc2cccc(C(=O)OCOC(=O)OC(C)C)c2n1Cc1ccc(-c2ccccc2-c2noc(=O)[nH]2)cc1 [QR01002]

>  <unitsSymbol>
%

>  <inhibition in vivo at 2 mg/kg>
6.4

$$$$
